Task for the reader: assign each of the following compounds its reported relative cell viability.
test system: HL-1; assay: relative cell viability (CellTiter-Glo) vs DMSO control (% of DMSO control); higher = more viable cells; conditions: oxygen condition: hypoxia 48 h (1% O2) + reoxygenation 24 h; 5000 nM
Answers are plain numbers.

Examples from the recorded data:
compound | assay result
CCN1CCC[C@H]1CNC(=O)c1cc(S(N)(=O)=O)ccc1OC [Levosulpiride] | 116
Cc1ccc(C(=O)Nc2ccc(CN3CCN(C)CC3)c(C(F)(F)F)c2)cc1C#Cc1cnc2cccnn12 [Ponatinib] | 107
CCOC(=O)C1=C(C)NC(C)=C(C(=O)OC)C1c1cccc(Cl)c1Cl (centres undefined) [Felodipine] | 98.7

Exercise: Look up relative cell viability: CC1CNc2c(cccc2S(=O)(=O)N[C@@H](CCCNC(=N)N)C(=O)N2CC[C@@H](C)C[C@@H]2C(=O)O)C1 (some centres undefined) [Argatroban]
Key: 106

----------
tested on: HL-1; assay: relative cell viability (CellTiter-Glo) vs DMSO control (% of DMSO control); higher = more viable cells; conditions: oxygen condition: hypoxia 48 h (1% O2) + reoxygenation 24 h; 5000 nM
Where a name gives a salt, the structure may show the parent alone.
attribute measured: relative cell viability
Numbers only.

Answered examples (3):
molecule | measurement target | assay result
NC(=O)N1c2ccccc2CC(=O)c2ccccc21 [Oxcarbazepine] | HL-1 | 102
CC(C)NCC(O)COc1cccc2ccccc12 (stereo unspecified) [Propranolol HCl] | HL-1 | 109
COCCc1ccc(OCC(O)CNC(C)C)cc1 (stereo unspecified) [Metoprolol tartrate] | HL-1 | 111

// each molecule listed below needs its relative cell viability
1. CCc1c2c(nc3ccc(OC(=O)N4CCC(N5CCCCC5)CC4)cc13)-c1cc3c(c(=O)n1C2)COC(=O)[C@]3(O)CC [Irinotecan]
2. c1ccc2c(CC3=NCCN3)cccc2c1 [Naphazoline hydrochloride]

Key:
1. 28.7
2. 109

----------
For each record, write down the corresponding relative cell viability.
tested on: HL-1; assay: relative cell viability (CellTiter-Glo) vs DMSO control (% of DMSO control); higher = more viable cells; details: oxygen condition: normoxia 72 h; 1000 nM
Where a name gives a salt, the structure may show the parent alone.

A selection of reference data follows.
molecule | assay result
Cc1ccc(O)c([C@H](CCN(C(C)C)C(C)C)c2ccccc2)c1 [Tolterodine tartrate] | 107
COc1ccc(CC(C)NCC(O)c2ccc(O)c(NC=O)c2)cc1 (stereo unspecified) [Formoterol hemifumarate] | 98.9
CN1CCC[C@H]1c1cccnc1 [Nicotine Ditartrate] | 103

I'm hoping you can list relative cell viability for every molecule here, please.
1. O=C(O)Cc1ccccc1Nc1c(Cl)cccc1Cl [Diclofenac]
2. CC1Cc2ccccc2N1NC(=O)c1ccc(Cl)c(S(N)(=O)=O)c1 (stereo unspecified) [Indapamide]
3. Cc1cccc(N(C)C(=S)Oc2ccc3ccccc3c2)c1 [Tolnaftate]
4. COC(=O)C1=C(C)NC(C)=C(C(=O)OC(C)C)C1c1cccc2nonc12 (stereo unspecified) [Isradipine]
5. Cc1cc(N)c2ccccc2[n+]1CCCCCCCCCC[n+]1c(C)cc(N)c2ccccc21 [Dequalinium chloride]
6. Nc1nc(=O)c2c([nH]1)NCC(CNc1ccc(C(=O)N[C@@H](CCC(=O)O)C(=O)O)cc1)N2C=O (stereo partly specified) [Leucovorin Calcium]
7. CN[C@@H]1[C@H](O)[C@H](NC)[C@H]2O[C@@]3(O)C(=O)C[C@@H](C)O[C@H]3O[C@@H]2[C@H]1O [Spectinomycin hydrochloride]
8. CC[C@H]1OC(=O)[C@H](C)[C@@H](O[C@H]2C[C@@](C)(OC)[C@@H](O)[C@H](C)O2)[C@H](C)[C@@H](O[C@@H]2O[C@H](C)C[C@H](N(C)C)[C@H]2O)[C@](C)(O)C[C@@H](C)CN(C)[C@H](C)[C@@H](O)[C@]1(C)O [Azithromycin]

Key:
[105, 106, 105, 102, 97.3, 102, 101, 102]

Hey, can you go through the list below and give me relative cell viability for every item?
1. COC(=O)[C@H]1[C@H]2C[C@@H]3c4[nH]c5cc(OC)ccc5c4CCN3C[C@H]2C[C@@H](OC(=O)c2cc(OC)c(OC)c(OC)c2)[C@@H]1OC [Reserpine]
2. OCCOCCN1CCN(C2=Nc3ccccc3Sc3ccccc32)CC1 [Quetiapine fumarate]

Key:
1. 103
2. 108

# batch: return relative cell viability for each of the 2 molecules below
1. C[C@@H]1CCN(C(=O)CC#N)C[C@@H]1N(C)c1ncnc2[nH]ccc12 [Tofacitinib citrate]
2. CC(=O)/N=c1/sc(S(N)(=O)=O)nn1C [Methazolamide]

Key:
1. 98.7
2. 99.7

Exercise: What measured relative cell viability goes with NCC(=O)CCC(=O)O [5-Aminolevulinic acid hydrochloride] ?
Key: 100
